Data origin: patent US6872805B2

Reported pEC50 values follow for various molecules
System: HCV replicon in Huh7 cells
Experiment: HCV replicon cell-based assay
Set-up: species or system HCV strain 1B
Conditions: Hepatitis C virus, Huh-7, 96 h; HCV replicon, Huh7 cells, 4 days; activity ranges; read-out: EC50
pEC50: −log10 of the molar value.

# Molecule, pEC50
measured = [
    ("C=C[C@@H]1C[C@]1(NC(=O)C1C[C@@H](Oc2cc(-c3ccccc3)nc3cc(OC)ccc23)CN1C(=O)[C@@H](NC(=O)c1ccco1)C(C)(C)C)C(=O)NS(=O)(=O)C1CC1 (stereo partly shown)", "> 6.30"),
    ("CCC1C[C@]1(NC(=O)[C@@H]1C[C@@H](Oc2cc(-c3ccccc3)nc3cc(OC)ccc23)CN1C(=O)[C@@H](NC(=O)OC(C)(C)C)C(C)C)C(=O)NS(=O)(=O)C1CC1 (stereo in doubt)", "> 7.30"),
    ("C=CC1C[C@]1(NC(=O)[C@@H]1C[C@@H](Oc2cc(-c3ccccc3)nc3cc(OC)ccc23)CN1C(=O)[C@H](CC(C)C)NC(=O)OC(C)(C)C)C(=O)NS(=O)(=O)C1CC1 (stereo partly shown)", "> 7.30"),
    ("C=C[C@@H]1C[C@]1(NC(=O)C1CC(Oc2cc(-c3ccccc3)nc3cc(OC)ccc23)CN1C(=O)[C@@H](NC(=O)CCl)C(C)(C)C)C(=O)NS(=O)(=O)C1CC1 (stereo partly shown)", "> 7.30"),
    ("C=CCC[C@](C)(NC(=O)[C@@H]1C[C@@H](Oc2cc(-c3ccccc3)nc3cc(OC)ccc23)CN1C(=O)C(NC(=O)OC(C)(C)C)C(C)(C)C)C(=O)NS(=O)(=O)c1ccccc1 (stereo partly shown)", "> 7.30"),
    ("C=CC1C[C@]1(NC(=O)[C@@H]1C[C@@H](Oc2cc(-c3ccccc3)nc3cc(OC)ccc23)CN1C(=O)[C@@H](NC(=O)OC(C)(C)C)C(C)(C)C)C(=O)N[S+]([O-])C(C)(C)C (stereo partly shown)", "> 5.30"),
    ("CCC1C[C@]1(NC(=O)C1C[C@@H](Oc2cc(-c3ccccc3)nc3cc(OC)ccc23)CN1C(=O)[C@@H](NC(=O)OCCF)C(C)C)C(=O)NS(=O)(=O)C1CC1 (stereo partly shown)", "> 6.30"),
    ("C=CC1C[C@]1(NC(=O)[C@@H]1C[C@@H](Oc2cc(-c3ccccc3)nc3cc(OC)ccc23)CN1C(=O)C(NC(=O)OC(C)(C)C)C(C)(C)C)C(=O)NS(=O)(=O)c1ccccc1C (stereo partly shown)", "> 6.30"),
    ("COc1ccc2c(OC3C[C@@H](C(=O)NC4(C(=O)NS(=O)(=O)C5CC5)CC45CC5)N(C(=O)[C@@H](NC(=O)OC(C)(C)C)C(C)(C)C)C3)cc(-c3ccccc3)nc2c1 (stereo partly shown)", "> 6.30"),
    ("C=C1C[C@]1(NC(=O)[C@@H]1C[C@@H](Oc2cc(-c3ccccc3)nc3cc(OC)ccc23)CN1C(=O)C(NC(=O)OC(C)(C)C)C(C)(C)C)C(=O)NS(=O)(=O)c1cccc(Br)c1 (stereo partly shown)", "> 7.30"),
    ("C=C[C@@H]1C[C@]1(NC(=O)C1C[C@@H](Oc2cc(-c3ccccc3)nc3cc(OC)ccc23)CN1C(=O)[C@@H](Nc1ccccc1[N+](=O)[O-])C(C)(C)C)C(=O)NS(=O)(=O)C1CC1 (stereo partly shown)", "> 5.30"),
    ("C=C[C@@H]1C[C@]1(NC(=O)C1CC(Oc2cc(-c3ccccc3)nc3cc(OC)ccc23)CN1C(=O)[C@@H](NC(=O)Oc1ccccc1)C(C)(C)C)C(=O)NS(=O)(=O)C1CC1 (stereo partly shown)", "> 7.30"),
    ("C=C[C@@H]1C[C@]1(NC(=O)C1C[C@@H](Oc2cc(-c3ccccc3)nc3cc(OC)ccc23)CN1C(=O)[C@@H](NC(=O)COC)C(C)(C)C)C(=O)NS(=O)(=O)C1CC1 (stereo partly shown)", "> 6.30"),
    ("C=C1C[C@]1(NC(=O)[C@@H]1C[C@@H](Oc2cc(-c3ccccc3)nc3cc(OC)ccc23)CN1C(=O)C(NC(=O)OC(C)(C)C)C(C)(C)C)C(=O)NS(=O)(=O)c1ccc(F)cc1 (stereo partly shown)", "> 6.30"),
    ("C=CC1C[C@]1(NC(=O)[C@@H]1C[C@@H](Oc2cc(-c3ccccc3)nc3cc(OC)ccc23)CN1C(=O)C(NC(=O)OC(C)(C)C)C(C)(C)C)C(=O)NS(=O)(=O)c1ccc(OC)cc1 (stereo partly shown)", "> 7.30"),
    ("C=CCC[C@](C)(NC(=O)[C@@H]1C[C@@H](Oc2cc(-c3ccccc3)nc3cc(OC)ccc23)CN1C(=O)C(NC(=O)OC(C)(C)C)C(C)(C)C)C(=O)NS(=O)(=O)c1ccc(F)c(Cl)c1 (stereo partly shown)", "> 6.30"),
]

====

System: HCV replicon in Huh7 cells
Assay: HCV replicon cell-based assay
Design: species or system HCV strain 1B
Details: Hepatitis C virus, Huh-7, 96 h; HCV replicon, Huh7 cells, 4 days; activity ranges; read-out: EC50

# Compound, EC50
data = [
    ("C=CC1C[C@]1(NC(=O)[C@@H]1C[C@@H](Oc2cc(-c3ccccc3)nc3cc(OC)ccc23)CN1C(=O)C(NC(=O)OC(C)(C)C)C(C)(C)C)C(=O)NS(=O)(=O)c1cccc2ccccc12 (some centres unmarked) [Compound 35]", "< 500 nM"),
    ("C=CCC[C@](C)(NC(=O)[C@@H]1C[C@@H](Oc2cc(-c3ccccc3)nc3cc(OC)ccc23)CN1C(=O)C(NC(=O)OC(C)(C)C)C(C)(C)C)C(=O)NS(=O)(=O)c1cccc(Cl)c1 (some centres unmarked) [Compound 43]", "< 500 nM"),
    ("C=CC1CC1(NC(=O)OC(C)(C)C)C(=O)N1C[C@H](Oc2cc(-c3ccccc3)nc3cc(OC)ccc23)C[C@H]1C(=O)N[C@]1(C(=O)NS(=O)(=O)C2CC2)CC1CC (some centres unmarked) [Compound 69]", "< 500 nM"),
    ("C=CC1C[C@]1(NC(=O)[C@@H]1C[C@@H](Oc2cc(-c3ccccc3)nc3cc(OC)ccc23)CN1C(=O)[C@@H](NC(=O)OC(C)(C)C)C(C)(C)C)C(=O)NS(=O)(=O)CC (some centres unmarked) [Compound 25]", "< 500 nM"),
    ("C=CC1C[C@]1(NC(=O)[C@@H]1C[C@@H](Oc2cc(-c3ccccc3)nc3cc(OC)ccc23)CN1C(=O)[C@@H](NC(=O)NC(C)(C)C)C(C)(C)C)C(=O)NS(=O)(=O)C1CC1 (stereo in doubt) [Compound 19]", "< 50 nM"),
]

====

Reported IC50 values follow for various compounds
Biological target: HCV NS3/4A protease complex (Hepatitis C virus genotype 1a, UniProt P27958, C1454S/C1711G)
Sequence (P27958 1027-1711, stated change not applied): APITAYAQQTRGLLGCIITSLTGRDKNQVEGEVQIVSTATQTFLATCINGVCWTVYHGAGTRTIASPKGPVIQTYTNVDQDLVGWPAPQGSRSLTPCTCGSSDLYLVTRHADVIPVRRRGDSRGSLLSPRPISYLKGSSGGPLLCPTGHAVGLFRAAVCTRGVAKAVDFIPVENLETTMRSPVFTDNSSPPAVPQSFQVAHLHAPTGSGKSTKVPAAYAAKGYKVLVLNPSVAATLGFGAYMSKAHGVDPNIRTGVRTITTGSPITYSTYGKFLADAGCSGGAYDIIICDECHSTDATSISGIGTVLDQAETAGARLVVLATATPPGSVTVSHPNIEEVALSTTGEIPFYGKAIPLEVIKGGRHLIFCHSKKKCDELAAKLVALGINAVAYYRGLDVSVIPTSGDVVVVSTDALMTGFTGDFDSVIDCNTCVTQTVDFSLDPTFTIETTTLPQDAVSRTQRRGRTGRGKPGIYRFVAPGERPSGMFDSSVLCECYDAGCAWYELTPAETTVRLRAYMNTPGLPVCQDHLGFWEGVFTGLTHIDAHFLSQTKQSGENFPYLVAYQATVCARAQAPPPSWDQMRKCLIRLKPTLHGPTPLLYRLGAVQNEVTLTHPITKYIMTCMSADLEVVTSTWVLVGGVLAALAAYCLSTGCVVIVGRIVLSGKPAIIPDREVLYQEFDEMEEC
Sequence (P27958 1027-1711, stated change not applied): as above
Test: Recombinant HCV NS3/4A protease complex FRET peptide assay (strain not stated)
Type: biochemical
Details: IC50, NS3/4A protease enzyme assay, strain not stated; activity ranges
Text: The purpose of this in vitro assay was to measure the inhibition of HCV NS3 protease complexes, derived from the BMS, H77C or J416S strains, as described below, by compounds of the present invention. Serum from an HCV-infected patient was obtained from Dr. T. Wright, San Francisco Hospital. […]

# Compound, IC50
data = [
    ("CCC1CC1(NC(=O)[C@@H]1C[C@@H](Oc2cc(-c3ccccc3)nc3cc(OC)ccc23)CN1C(=O)[C@H](CC1CCCCC1)NC(=O)OC(C)(C)C)C(=O)NS(C)(=O)=O (stereo partly shown) [Compound 75]", "< 0.5 µM"),
    ("CCC1CC1(NC(=O)[C@@H]1C[C@@H](Oc2cc(-c3ccccc3)nc3cc(OC)ccc23)CN1C(=O)[C@H](CC1CCCCC1)NC(=O)OC(C)(C)C)C(=O)NS(=O)(=O)C(F)(F)F (stereo partly shown)", "< 5 µM"),
    ("COc1ccc2c(O[C@@H]3CC(C(=O)NC4(C(=O)NS(=O)(=O)C5CC5)CC4)N(C(=O)[C@@H](NC(=O)OC(C)(C)C)C(C)C)C3)cc(-c3ccccc3)nc2c1 (stereo partly shown)", "< 0.05 µM"),
    ("C=CC1C[C@]1(NC(=O)[C@@H]1C[C@@H](Oc2cc(-c3ccccc3)nc3cc(OC)ccc23)CN1C(=O)[C@@H](N)C(C)(C)C)C(=O)NS(=O)(=O)C1CC1 (stereo partly shown)", "< 0.05 µM"),
    ("C=CC1CC1(NC(=O)[C@@H]1C[C@@H](Oc2cc(-c3ccccc3)nc3cc(OC)ccc23)CN1C(=O)[C@H](CC1CCCCC1)NC(=O)OC(C)(C)C)C(=O)NS(C)(=O)=O (stereo partly shown)", "< 0.5 µM"),
    ("C=C[C@@H]1C[C@]1(NC(=O)C1C[C@@H](Oc2cc(-c3ccccc3)nc3cc(OC)ccc23)CN1C(=O)[C@@H](NC(=O)C(F)(F)F)C(C)(C)C)C(=O)NS(=O)(=O)C1CC1 (stereo partly shown)", "< 0.05 µM"),
    ("CCC1CC1(NC(=O)[C@@H]1C[C@@H](Oc2cc(-c3ccccc3)nc3cc(OC)ccc23)CN1C(=O)[C@H](CC1CCCCC1)NC(=O)OC(C)(C)C)C(=O)NS(=O)(=O)C1CC1 (stereo partly shown) [Compound 78]", "< 0.05 µM"),
    ("C=CCC[C@](C)(NC(=O)[C@@H]1C[C@@H](Oc2cc(-c3ccccc3)nc3cc(OC)ccc23)CN1C(=O)C(NC(=O)OC(C)(C)C)C(C)(C)C)C(=O)NS(=O)(=O)c1ccccc1 (stereo partly shown)", "< 0.05 µM"),
    ("C=CC1C[C@]1(NC(=O)[C@@H]1C[C@@H](Oc2cc(-c3ccccc3)nc3cc(OC)ccc23)CN1C(=O)[C@@H](NC(=O)OC(C)(C)C)C(C)(C)C)C(=O)NS(=O)(=O)CC1CCC1 (stereo in doubt)", "< 0.5 µM"),
    ("C=CC1C[C@]1(NC(=O)[C@@H]1C[C@@H](Oc2cc(-c3ccccc3)nc3cc(OC)ccc23)CN1C(=O)C(NC(=O)OC(C)(C)C)C(C)(C)C)C(=O)NS(=O)(=O)c1cccc2ccccc12 (stereo partly shown)", "< 0.05 µM"),
]
